assay: Plasma pharmacokinetics after single oral dose of Δ8-THCV in MCT oil (LC-MS/MS, non-compartmental analysis); assay type: in vivo, human; conditions: human, plasma, po, 50 mg, 50 mg single oral Δ8-THCV in MCT oil; plasma; Mean (±SD); read-out: tmax
assay_readout: Tmax (h)
Numbers only, in h.

Please review the following examples before continuing.
1. CCCc1cc(O)c2c(c1)OC(C)(C)[C@@H]1CCC(C(=O)O)=C[C@@H]21 :: 5.1
2. CCCc1cc(O)c2c(c1)OC(C)(C)[C@@H]1CC=C(C)C[C@@H]21 [Δ8-THCV, Δ8-tetrahydrocannabivarin] :: 5
3. CCCc1cc(O)c2c(c1)OC(C)(C)[C@@H]1CC=C(CO)C[C@@H]21 (racemic) [11-OH-Δ8-THCV, (±)-11-hydroxy-Δ8-THCV] :: 5

Dear colleague, I am looking for the recorded Tmax of the following compound: CCCc1cc(O)c2c(c1)OC(C)(C)[C@@H]1CC=C(C(=O)O)C[C@@H]21 5.3
